experiment: gradient 5% acetonitrile 3 min, to 50% in 2 min, to 85% in 15 min, held 3 min, 100 µL/min; settings: column: Zorbax Extend-C18 2.1 x 50 mm; eluents: water / acetonitrile, 0.1% formic acid
The label depends only on RP-LC retention time: fulfilled if it is at least 800 s, not fulfilled if it is smaller.

// known answers, use as guide
molecule	cat
CC(C)C[C@H]1C(=O)N2CCC[C@H]2[C@]2(O)O[C@](NC(=O)[C@@H]3C=C4c5cccc6[nH]c(Br)c(c56)CC4N(C)C3)(C(C)C)C(=O)N12 (stereo partly drawn)	fulfilled
COC(=O)C1=CN(c2cc(OC)cc(OC)c2)c2ccccc2S1(=O)=O	fulfilled
Cn1c(N2CCCC(C(=O)NCC3CCN(Cc4ccccc4F)CC3)C2)cc(=O)n(C)c1=O (stereo not drawn)	not fulfilled

We next turn to a different molecule, shown below.
Threshold query (RP-LC retention time >= 800 s) on COc1ccc(-c2noc(-c3cccn3CC(=O)NCc3ccco3)n2)cc1F
fulfilled

###

test: gradient 5% acetonitrile 3 min, to 50% in 2 min, to 85% in 15 min, held 3 min, 100 µL/min; settings: column: Zorbax Extend-C18 2.1 x 50 mm; eluents: water / acetonitrile, 0.1% formic acid
// class assignment uses RP-LC retention time with these ranges: label 0 = under 600 s, label 1 = from 600 s up to 800 s, label 2 = 800 s and over

Field: example entries. Status: answers known.
molecule	cat
COc1ccc2c(c1)C1(CCN(C(=O)c3cccc(OC)c3OC)C1)C(=O)N2C (stereo not given)	label 1
O=C(Nc1ccc2c(c1)OCCO2)C1CCCN(S(=O)(=O)Cc2ccccc2Cl)C1 (stereo not given)	label 2
Cc1ccn2c(NC(=O)CCc3ccccc3)c(-c3ccccc3)nc2c1	label 1

Sort CN1C(=O)C(C)(C(=O)Nc2cccc(Cl)c2)Oc2cccnc21 (stereo not given) into one of the categories.
label 2

GET /class?item= CCOC(=O)CNC(=O)N1CCC(n2c(-c3ccc(C)cc3)nc3cccnc32)C1 (stereo not given)
label 1

Record Cc1ccc(Cl)cc1NS(=O)(=O)c1ccc(-c2c(C)noc2C)cc1 — which class?
label 2

###

assay: gradient 5% acetonitrile 3 min, to 50% in 2 min, to 85% in 15 min, held 3 min, 100 µL/min; conditions: column: Zorbax Extend-C18 2.1 x 50 mm; eluents: water / acetonitrile, 0.1% formic acid
Recorded RP-LC retention time for the following compounds
Numbers only; they are read as s.

Some compounds with recorded RP-LC retention time:
compound	readoutType	result
OC(c1cc(C(F)(F)F)nc2c(Cl)cc(Cl)cc12)C1CCCCN1 (stereo not given)	RP-LC retention time	786
O=C(c1ccc(OCC2CCN(C(=O)C3CCC3)CC2)cc1)N1CCCC1	RP-LC retention time	782
CCc1nc2cc(-c3noc(-c4ccco4)n3)ccc2o1	RP-LC retention time	968

Provide one value: measured RP-LC retention time of O=C(c1cccc(F)c1)N1CCC2(CC1)N=C(c1ccccc1)NO2
739

Report measured RP-LC retention time; entry is COC(=O)c1ncn2c1C(=O)N(Cc1ccccc1C)C(C)(C(=O)NCc1ccccc1)C2 (stereo not given)
735

Quote RP-LC retention time reported for O=C(NCC1CCN(C(=O)Nc2ccc(F)cc2)CC1)c1ccccn1 please.
674

Tell me its RP-LC retention time given Cc1nc(-c2noc(-c3ccccc3)n2)cn1CC(=O)NCc1cccc(Cl)c1 as the entry.
866

Tell us which RP-LC retention time value is on record for COc1ccc(CCNC(=O)C2CC(=O)N(c3n[nH]c4ccccc34)C2)cc1OC (stereo not given)
657

Provide RP-LC retention time value for the following compound: O=S(=O)(Cc1ccccc1F)N1CCC(c2noc(-c3cccnc3)n2)C1 (stereo not given)
826

Let me know recorded RP-LC retention time for O=C(NCc1ccc(F)cc1)c1ccc2c(cnn2CC(=O)N2CCCCCC2)c1 , thanks.
951

###

experiment: gradient 5% acetonitrile 3 min, to 50% in 2 min, to 85% in 15 min, held 3 min, 100 µL/min; details: column: Zorbax Extend-C18 2.1 x 50 mm; eluents: water / acetonitrile, 0.1% formic acid
Would you mind labelling by RP-LC retention time? At or over 800 s is TRUE, under is FALSE.

Previously resolved entries follow.
compound	cat
CCCC(=O)Nc1cc2c(cc1S(=O)(=O)c1ccc(F)cc1)n(C)c(=O)n2C	FALSE
O=C(Nc1nnc(C2CC(=O)N(c3ccc(F)cc3)C2)o1)c1cccc(F)c1 (centres undefined)	FALSE
CCCN(CC1CCOC1)C(=O)c1cc(C)cc(C)c1 (centres undefined)	TRUE
Cc1nc(-c2cccnc2)nc2c1CCC(=O)N2Cc1ccccc1	FALSE
CC1(C(=O)NCc2cccc(F)c2)CCCN(S(=O)(=O)c2ccccc2)C1 (centres undefined)	TRUE

Assess whether reported RP-LC retention time for O=C(Cc1ccc(F)cc1)NCCNc1cc(-n2cccn2)ncn1 sits at 800 s or higher.
FALSE

Record O=c1ccc(-c2ccco2)nn1CCCNS(=O)(=O)/C=C/c1ccccc1 ; criterion: RP-LC retention time no lower than 800 s. Met?
FALSE

In plain terms: is recorded RP-LC retention time at least 800 s for Cc1cccc(CNC(=O)C2(C)Cn3cnc(C(=O)NCc4ccccc4)c3C(=O)N2C2CC2)c1 (centres undefined) ?
FALSE

###

assay: gradient 5% acetonitrile 3 min, to 50% in 2 min, to 85% in 15 min, held 3 min, 100 µL/min; details: column: Zorbax Extend-C18 2.1 x 50 mm; eluents: water / acetonitrile, 0.1% formic acid
RP-LC retention time less than 700 s is 1; RP-LC retention time greater than or equal to 700 s is -1.

compound	cat
O=C(Nc1cc(F)cc(F)c1)c1c(O)c2cccnc2n(-c2cccc(F)c2)c1=O	-1
COc1ccc(NC(=O)c2nc(C)oc2C)c(OC)c1	-1
Cc1ccc(CNC(=O)C2CCCN(c3cnc4nccnc4c3)C2)cc1C (centres undefined)	-1
Brc1ccc(CSc2nnc3ccc(-c4cccnc4)nn23)cc1	-1
O=C(Nc1cnc(N2CCN(c3ccccc3Cl)CC2)c(C(=O)O)c1)c1cccs1	-1
O=C(N1CCN(S(=O)(=O)c2cccnc2)CC1)N1C[C@H]2C[C@H](C1)[C@H]1CCCC(=O)N1C2	1

Does COCCN(Cc1ccc(C(C)C)cc1)Cc1cc(=O)n2cc(Cl)ccc2n1 have RP-LC retention time strictly under 700 s?
1

Identify whether the compound Cc1c(C)n(CC(O)CNC(C)c2ccccc2)c2ccccc12 (centres undefined) records RP-LC retention time below 700 s.
1

Dear colleague, could you confirm whether RP-LC retention time of Cn1nc(-c2nnc(-c3ccccc3F)o2)c2c1CCN(S(=O)(=O)c1ccc(F)cc1)C2 falls below 700 s? Thanks.
-1

Check if RP-LC retention time falls below 700 s for CC1CCN(c2nc(C(=O)N3CCN(c4ccccc4)CC3)nc3c2cnn3C)CC1 .
-1

In plain terms, does Cc1ccc(C(O)CN2CCN(c3ccccn3)CC2)c(C)c1 (centres undefined) come in under 700 s for RP-LC retention time?
1

Does the reported RP-LC retention time of the following compound sit strictly below 700 s? O=c1c2cnn(-c3ccc(F)cc3)c2ncn1Cc1nc(-c2ccc(Br)cc2)no1
-1

Could you please tell me whether RP-LC retention time recorded for COc1ccc(NC(=O)c2cn(C)nc2S(=O)(=O)N2CCC(C)CC2)c(F)c1 is less than 700 s?
-1

###

test: gradient 5% acetonitrile 3 min, to 50% in 2 min, to 85% in 15 min, held 3 min, 100 µL/min; details: column: Zorbax Extend-C18 2.1 x 50 mm; eluents: water / acetonitrile, 0.1% formic acid
# RP-LC retention time per record follows

Below are worked cases with known answers.
compound	RP-LC retention time
CCC(=O)N1CCc2c(sc3ncnc(N4CCCC4)c23)C1	641 s
CCCNc1cc(N2CCC(CCC(=O)NCc3cccs3)CC2)ncn1	661 s
CCC1CN(C(=O)N2CCC(C(=O)NCCCN3CCCC3=O)CC2)c2ccccc2O1 (centres undefined)	709 s

Annotate the compound CCOC(=O)COc1cc(O)cc2oc(-c3ccccc3)cc(=O)c12 with its measured RP-LC retention time.
695 s

For the compound O=C(c1cccn1-c1nnc(N2CCCC2)s1)N1CCN(c2ccccn2)CC1 , give its reported RP-LC retention time.
598 s

Quickly give me recorded RP-LC retention time for COc1ccc(-c2c(C)noc2NC(C)=O)cc1S(=O)(=O)Nc1ccc2c(c1)OCCO2
707 s

###

assay: gradient 5% acetonitrile 3 min, to 50% in 2 min, to 85% in 15 min, held 3 min, 100 µL/min; details: column: Zorbax Extend-C18 2.1 x 50 mm; eluents: water / acetonitrile, 0.1% formic acid
# MET = RP-LC retention time below 900 s (exclusive); NOT MET = RP-LC retention time at/above 900 s

Reference set (6 entries):
compound	cat
COc1ccccc1-c1noc(C2CCCN2C(=O)NCc2ccco2)n1 (stereo not given)	MET
O=C(C1CCCN(c2cnc3nccnc3c2)C1)N1CCN(c2ccc(F)cc2)CC1 (stereo not given)	MET
COCc1cc2nn(CC(=O)Nc3ccccc3F)c(=O)n2c(-c2ccccc2)n1	MET
CC1=C(c2ccc(C)c(C)c2)S(=O)(=O)N=C1N1CCCN(C(=O)c2ccncc2)CC1	MET
Cc1ccc(NC(=O)N2CCCC2c2c(C)noc2C)cc1 (stereo not given)	MET
O=S(=O)(c1cccn2c(SCc3cccc(Cl)c3)nnc12)N1CCCC1	MET

Threshold test, RP-LC retention time < 900 s: Cc1ccc(CN2CC(n3cc(COc4ccc(F)cc4)nn3)C2)s1
MET

Determine if COc1cc(C)c(C)cc1S(=O)(=O)Nc1ccc(Cl)c(N2CCCS2(=O)=O)c1 shows RP-LC retention time strictly lower than 900 s.
NOT MET

Please indicate whether the reported RP-LC retention time of NC(=O)COC1CCC12CCN(C(=O)C1CCCC1)CC2 (stereo not given) is strictly below 900 s.
MET

Strictly below 900 s: is that where RP-LC retention time of COC(=O)c1c(C)[nH]c(C(=O)N2CCCC(C(=O)NCCN3CCCCCC3)C2)c1C (stereo not given) sits?
MET

A record lists O=C(NC1CCN(C(=O)N2C[C@H]3C[C@H](C2)[C@H]2CCCC(=O)N2C3)CC1)c1ccc2ccccc2n1 . Is its RP-LC retention time below 900 s?
MET

For CN1CCc2nnc(C3CCCN3C(=O)Nc3cc(Cl)cc(Cl)c3)n2CC1 (stereo not given) , is the recorded RP-LC retention time below the cut-off of 900 s?
MET

Criterion: RP-LC retention time strictly below 900 s. Is it met by CCc1cccc(C)c1NC(=O)Cn1nc2n(c1=O)CCCCC2 ?
MET

RP-LC retention time under 900 s? Item: COC(=O)c1cccc(C(=O)Nc2ccc(C)c(Cl)c2)n1
NOT MET

Please let me know if Cc1ccc(-c2noc(Cn3ccnc3C)n2)cc1C shows RP-LC retention time below 900 s.
MET

Dear colleague, could you confirm whether RP-LC retention time of COCCCNc1c(-c2ccc(C)cc2)nc2sc(C(N)=O)c(C)n12 falls below 900 s? Thanks.
MET
